Measure: logP

{"Compound": "CC(C)C(=O)NCCNCC(O)COC1CCCc2ccccc21 (stereo unspecified)", "Readout Number": 1.99}
{"Compound": "CC(C)(C)NCC(O)COc1ccccc1 (stereo unspecified)", "Readout Number": 1.5}
{"Compound": "CC(C)NCC(O)COCc1ccccc1 (stereo unspecified)", "Readout Number": 1.62}
{"Compound": "CC(C)NCC(O)COCCCC(C)c1ccccc1 (stereo unspecified)", "Readout Number": 2.95}
{"Compound": "CC(C)(C)NCC(O)COCc1ccccc1 (stereo unspecified)", "Readout Number": 1.7}
{"Compound": "CC(C)C(=O)NCCNCC(O)COCCc1ccccc1 (stereo unspecified)", "Readout Number": 0.95}
{"Compound": "CC(CCCOCC(O)CNC(C)(C)C)c1ccccc1 (stereo unspecified)", "Readout Number": 2.29}
{"Compound": "O=C(Cc1ccccc1)NCCNCC(O)COC1CCCc2ccccc21 (stereo unspecified)", "Readout Number": 1.68}
{"Compound": "O=C(Cc1ccccc1)NCCNCC(O)COCC=Cc1ccccc1 (stereo unspecified)", "Readout Number": 1.76}
{"Compound": "CC(C)(C)NCC(O)COCCc1ccccc1 (stereo unspecified)", "Readout Number": 2.51}
{"Compound": "CC(C)(C)NCC(O)COCCOc1ccccc1 (stereo unspecified)", "Readout Number": 2.35}
{"Compound": "O=C(Cc1ccccc1)NCCNCC(O)COCc1ccccc1 (stereo unspecified)", "Readout Number": 1.05}
{"Compound": "O=C(Cc1ccccc1)NCCNCC(O)COc1ccccc1 (stereo unspecified)", "Readout Number": 0.63}
{"Compound": "CC(C)C(=O)NCCNCC(O)COc1ccccc1 (stereo unspecified)", "Readout Number": 1.14}
{"Compound": "CC(C)NCC(O)COCCc1ccccc1 (stereo unspecified)", "Readout Number": 1.76}
{"Compound": "O=C(Cc1ccccc1)NCCNCC(O)COCCc1ccccc1 (stereo unspecified)", "Readout Number": 1.24}
{"Compound": "CC(C)C(=O)NCCNCC(O)COCc1ccccc1 (stereo unspecified)", "Readout Number": 0.63}
{"Compound": "CC(C)C(=O)NCCNCC(O)COCC=Cc1ccccc1 (stereo unspecified)", "Readout Number": 0.51}
{"Compound": "CC(C)C(=O)NCCNCC(O)COCCOc1ccccc1 (stereo unspecified)", "Readout Number": 0.48}
{"Compound": "CC(C)(C)NCC(O)COC1CCCc2ccccc21 (stereo unspecified)", "Readout Number": 3.55}
{"Compound": "CC(C)NCC(O)COC/C=C/c1ccccc1 (stereo unspecified)", "Readout Number": 2.15}
{"Compound": "CC(C)NCC(O)COCCCc1ccccc1 (stereo unspecified)", "Readout Number": 1.54}
{"Compound": "CC(C)NCC(O)COC1CCCc2ccccc21 (stereo unspecified)", "Readout Number": 3.42}
{"Compound": "CC(C)NCC(O)COCCOc1ccccc1 (stereo unspecified)", "Readout Number": 1.63}
{"Compound": "O=C(Cc1ccccc1)NCCNCC(O)COCCOc1ccccc1 (stereo unspecified)", "Readout Number": 0.75}
{"Compound": "CC(C)C(=O)NCCNCC(O)COCCCc1ccccc1 (stereo unspecified)", "Readout Number": 1.25}
